Test system: NOMO1
Assay: cell viability relative to DMSO control; higher = less cytotoxic
Conditions: RPMI 5 mM glucose + 10% FBS; 48 h; 0.00702 µM
readout.label: cell viability (%)
Report only the number, with the unit % understood.

Some molecules with known cell viability results, for comparison:
{"molecule": "CCC(CC)[C@H](NC(C)=O)[C@@H]1[C@H](O)[C@@H](C(=O)O)C[C@H]1NC(=N)N", "cell viability (%)": 88.7}
{"molecule": "COc1cc2ncnc(Nc3ccc(F)c(Cl)c3)c2cc1OCCCN1CCOCC1", "cell viability (%)": 109}
{"molecule": "CN(C)c1nc(N(C)C)nc(N(C)C)n1", "cell viability (%)": 102}
{"molecule": "CC1(C)CC(=O)c2c(C(F)(F)F)nn(-c3ccc(C(N)=O)c(NC4CCC(OC(=O)CN)CC4)c3)c2C1 (stereo unspecified)", "cell viability (%)": 92.4}
{"molecule": "c1ccc(-c2nn3c(c2-c2ccnc4cc(OCCN5CCOCC5)ccc24)CCC3)nc1", "cell viability (%)": 107}

Bench note, NOMO1: O=C(Oc1ccc([N+](=O)[O-])cc1)N1CCN(Cc2cccc(Oc3ccccc3)c2)CC1 , cell viability reads 112

Tested system NOMO1; cell viability recorded for CNC(=O)c1c(F)cccc1Nc1nc(Nc2cc3c(cc2OC)CCN3C(=O)CN(C)C)nc2[nH]ccc12 was 128

Entry O=C(c1ccc(F)cc1)C1CCN(CCn2c(=O)[nH]c3ccccc3c2=O)CC1 under NOMO1 had cell viability of 117

Reported NOMO1 cell viability for item CC1=C2N=C([NH]C2=CC(=C1)N3CCOCC3)\C4=C(NC[C@@H](O)C5=CC=CC(=C5)Cl)\C=C/NC4=O was 109

The recorded cell viability with NOMO1 for NC/1=N/C(=O)N(/C=C1)[C@H]2CC[C@@H](CO)O2 was 85.7
